Molecular target: HLA-B*45:06
Test: IEDB peptide-MHC binding, purified MHC/competitive/fluorescence; filed as Kd, often an IC50 or EC50 that approximates it; bounds were set here for any values at or beyond the usual limits of such assays
Settings: source organism: Mycobacterium tuberculosis str. Haarlem
Measurement Label: Kd

Kd of `YAREAGIAM` on HLA-B*45:06?
≥ 5 µM

* * *

In this section, each of the sequences is paired with its reported Kd.
Target: HLA-A*02:19
Test: IEDB peptide-MHC binding, purified MHC/direct/fluorescence; filed as Kd, often an IC50 or EC50 that approximates it; bounds were set here for any values at or beyond the usual limits of such assays
Conditions: source organism: Zaire ebolavirus

# annotated cases, reported Kd shown
Polymer Sequence	Kd
LSDLCNFLV	≥ 20 µM
HLPGFGTAF	≥ 20 µM

Attention now shifts to the item below.
Sample `LEARVNLSV` — what was its Kd?
≥ 20 µM
